biological target: UniProtKB Q13258; assay: Human DP1 inhibitory activity in DP1-expressing cell (PGD2-induced cAMP); type: cell-based; settings: category of cAMP IC50, human DP1 receptor expressing Jurkut cell
Sequence (Q13258 whole entry): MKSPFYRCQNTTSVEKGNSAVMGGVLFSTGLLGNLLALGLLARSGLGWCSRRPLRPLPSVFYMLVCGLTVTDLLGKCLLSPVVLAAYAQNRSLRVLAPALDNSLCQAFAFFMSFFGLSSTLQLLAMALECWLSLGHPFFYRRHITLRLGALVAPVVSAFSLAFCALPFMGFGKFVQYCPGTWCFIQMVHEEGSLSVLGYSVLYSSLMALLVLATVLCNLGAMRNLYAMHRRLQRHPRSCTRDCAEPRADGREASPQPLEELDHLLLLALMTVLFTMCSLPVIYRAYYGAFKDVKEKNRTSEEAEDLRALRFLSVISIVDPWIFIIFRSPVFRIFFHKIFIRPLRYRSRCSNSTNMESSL
Assay endpoint: IC50

>>> measured_value("CCOc1ccc(S(=O)(=O)N2C[C@@H](n3nc(CC(=O)O)c4ccc(F)cc43)[C@@H](C)[C@@H]2C(N)=O)cc1")
"100 to 5000 nM"
>>> measured_value("CC(C)Oc1ccc(S(=O)(=O)N2C[C@H](n3nc(CC(=O)O)c4ccc(F)cc43)C[C@H]2c2ccccn2)cc1 [Compound I-350]")
"100 to 5000 nM"
>>> measured_value("CCOc1ccc(S(=O)(=O)N2C[C@@H](C)[C@@H](n3nc(Cc4noc(=O)[nH]4)c4ccccc43)C2)cc1")
"100 to 5000 nM"
>>> measured_value("CCOc1ccc(S(=O)(=O)N2C[C@@H](C)[C@@H](n3nc(CC(=O)O)c4c(C)cccc43)C2)cc1")
"< 100 nM"

Source of measurements: patent US9725442B2
